System: A498
protocol: NCI tumour cell line growth inhibition, 48 h
Active and inactive are the calls of the source. Rule as the data show it: active = GI50 up to about 1.1 µM and inactive = higher.
# valid calls are active, inactive; nothing else

The following compounds have reported results that may help.
CC(C)OC(=O)c1ccc(CCC2=CC(=O)C(Br)=CC2=O)cc1 : inactive
C/C(CC(=O)NC1=CC=C(NC(=O)C/C(C)=N\Nc2ccccc2)CC1)=N/Nc1ccccc1 : inactive
COc1cc(-c2n[nH]cc2CCCC(=O)Nc2ccccc2[N+](=O)[O-])ccc1O : inactive
O=S(=O)(N/N=C/c1ccc(Cl)cc1Cl)c1ccccc1 : inactive
N#Cc1nc(C2OC(COC(=O)c3ccccc3)C(OC(=O)c3ccccc3)C2OC(=O)c2ccccc2)oc1N (stereo not drawn) : inactive

Can you look up the reported call for CCCC[C@@H]1CCN2C[C@@H](O)[C@@H](O)[C@H]2[C@@H]1O for me?
inactive

In this assay, the call recorded for N=c1sc2ccccc2n1CC[S-].c1ccc2c(c1)sc1[n+]2CCS1 was what?
inactive

---

Tested on: RXF 393
protocol: NCI tumour cell line growth inhibition, 48 h
The source made the active and inactive calls. Cut-off read from the data, not from the text of the source: active = GI50 up to about 1.1 µM and inactive = higher.
Write down one outcome, taken from TRUE for active, FALSE for inactive

COC(=O)[C@@H]1C(=O)O[C@@H](c2cc(OC)c(OC)cc2OC)[C@@H]1C(=O)OC.COC(=O)[C@H]1C(=O)O[C@@H](c2cc(OC)c(OC)cc2OC)[C@@H]1C(=O)OC : FALSE
Nc1nc(=O)n(C2CC(O)C(CO)O2)c2nc(-c3ccc(-c4ccccc4)cc3)cnc12 (stereo not drawn) : FALSE
CC(=O)O[C@@H]1C2=C(C)C=C(O2)[C@H]2O[C@]2(C)C[C@H]2C=C(C(=O)O2)[C@H](OC(C)=O)CC1[C@@]1(C)CO1 (stereo partly drawn) : FALSE
COc1cc2c(/C=C3/C(=O)Nc4ccccc43)c(Cl)n(Cc3ccc(Cl)cc3)c2cc1C : TRUE
CCC1C(C(=O)Nc2ccccc2C)=C(C)NC(C)=C1c1ccccc1C (stereo not drawn) : FALSE
N#Cc1c(NC(=S)Nc2ccccc2)sc2c1CCCC2 : FALSE

Would you mind telling me which call this test gave Cc1ccc(S(=O)(=O)OCCN(CCOS(=O)(=O)c2ccc(C)cc2)c2ccc(C=O)cc2)cc1 ?
FALSE

// outcome(item) with item = O=[N+]([O-])C(=C/c1cccs1)/C(=C\c1cccs1)[N+](=O)[O-]
TRUE

---

Test system: SR
protocol: NCI tumour cell line growth inhibition, 48 h
Calls of active or inactive are those of the source. Rule as the data show it: active = GI50 up to about 1.1 µM and inactive = higher.
observed-property: GI50

Recorded results for 3 molecules are shown here.
CSc1nc(C)cc(N(C)c2ccccc2)n1 : 10.7 µM (inactive)
CN1CCN(CC(=O)N2CCCn3c2nc2ccccc2c3=O)CC1 : > 100 µM (inactive)
COC(=O)Cc1c(/C=C/C(C)(C)n2cnc(CCN3C(=O)CCC3=O)c2)[nH]c2ccccc12 : 61.4 µM (inactive)

What does the record list as GI50 for CCOC(=O)Cc1csc(Nc2ccccc2[N+](=O)[O-])n1 ?
29.7 µM (inactive)

# lookup: GI50 of COC(=O)C1=Nc2c(C)nn(-c3ccccc3)c2N=C(c2ccccc2)C1
> 10 µM (inactive)

---

// reported GI50 for each item listed
System: OVCAR-3
protocol: NCI tumour cell line growth inhibition, 48 h
Active and inactive are the calls of the source. No stated cut-off is given here; in the data, active = GI50 up to about 1.1 µM and inactive = higher.

// known answers, use as guide
COC(=O)C1=C(O)c2cc(-c3ccccc3)c(-c3ccccc3)c(C#N)c2NC(=O)C1 : 77.8 µM (inactive)
CC(=O)c1c(O)c2c([nH]c1=O)CCCC2 : > 100 µM (inactive)

Which GI50 value belongs to O=[N+]([O-])C(=C/c1cccs1)/C(=C\c1cccs1)[N+](=O)[O-] ?
1.85 µM (inactive)

Would you kindly share the measured GI50 for CSc1nc(C)cc(N(C)c2ccccc2)n1 ?
27.3 µM (inactive)

---

Tested on: MDA-MB-435
protocol: NCI tumour cell line growth inhibition, 48 h
Activity calls are given as the source filed them. Rule as the data show it: active = GI50 up to about 1.1 µM and inactive = higher.
Listed below: GI50 values for each entry.

Cc1ccccc1/N=N/c1ccc(/N=N/c2c(O)ccc3cc(S(=O)(=O)O)cc(S(=O)(=O)O)c23)c(C)c1 : > 100 µM (inactive)
O=C1/C(=C/c2ccc(O)cc2)CCc2ccccc21 : 21.5 µM (inactive)
CCOC(=O)c1c(N)nn2c1cc1cccccc12 : 31.8 µM (inactive)
CC(=O)O[C@H]1C(=O)[C@@]2(C)[C@H]([C@H](OC(=O)c3ccccc3)[C@@]3(O)C[C@H](O)C(C)=C1C3(C)C)[C@]1(OC(C)=O)CO[C@@H]1C[C@@H]2O : 11.9 µM (inactive)
Cn1c(N=P(c2ccccc2)(c2ccccc2)c2ccccc2)c([N+](=O)[O-])c(=O)n(C)c1=O : 35.2 µM (inactive)
c1ccc2c(c1)CCc1c-2n(CCN2CCOCC2)c2ccccc12 : > 100 µM (inactive)

Item Cc1ccc(S(=O)(=O)NNC(=S)Nc2cccc3ccccc23)cc1 has what recorded GI50?
41.5 µM (inactive)

Any idea what its GI50 is? The compound is COc1c(Sc2c(SCSc3cnc4ccccc4c3Sc3cnc4ccccc4c3OC)cnc3ccccc23)cnc2ccccc12
26.9 µM (inactive)

Entry c1ccc2c[n+](Cc3ccnc4ccccc34)ccc2c1 : reported GI50 = ?
> 100 µM (inactive)

---

Some molecules, each annotated with its measured GI50.
Tested on: SNB-78
protocol: NCI tumour cell line growth inhibition, 48 h
Calls of active or inactive are those of the source. Rule as the data show it: active = GI50 up to about 1.1 µM and inactive = higher.

O=[N+]([O-])C(=C1c2ccccc2-c2ccccc21)[N+](=O)[O-] : > 100 µM (inactive)

Give the measured GI50 of N#CC(C(=O)C(=O)C(C#N)c1ccc(Br)cc1)c1ccc(Br)cc1 (stereo not given) .
12.2 µM (inactive)

Endpoint output: GI50 of CN(C)CCC(/C=C/c1ccccc1)=N\Nc1ccc(Cl)c(Cl)c1 . Value?
3.58 µM (inactive)

Look up GI50: CC(=O)c1ccc(NC(=O)C(=O)Nn2c(S)nc3ccccc3c2=O)cc1
> 100 µM (inactive)

What does the record list as GI50 for O=C(N/C(=C\c1ccc(/C=C(\NC(=O)c2ccccc2)c2nc3ccccc3[nH]2)cc1)c1nc2ccccc2[nH]1)c1ccccc1 ?
> 100 µM (inactive)

Fill in the blank: the reported GI50 of C=C(C(=C)P(=S)(C(C)C)C(C)C)P(=S)(C(C)C)C(C)C is ____.
> 100 µM (inactive)

Return reported GI50; argument: N#Cc1nc(C2OC(COC(=O)c3ccccc3)C(OC(=O)c3ccccc3)C2OC(=O)c2ccccc2)oc1N (stereo not given)
22 µM (inactive)

Recorded GI50 of COc1ccc(C(c2ccccc2C(=O)O)c2ccc(OC)c3ccccc23)c2ccccc12 , please.
20.9 µM (inactive)

Looking for the measured GI50 of NC(CCCCNCc1ccccc1O)C(=O)O (stereo not given) , can you help?
> 100 µM (inactive)

Please give the measured GI50 for this molecule: CC1C=C(OC(=O)c2ccccc2)C(=O)C(n2cc(F)c(=O)[nH]c2=O)O1 (stereo not given)
> 100 µM (inactive)

---

Test system: SW-620
protocol: NCI tumour cell line growth inhibition, 48 h
Activity calls are given as the source filed them. Cut-off read from the data, not from the text of the source: active = GI50 up to about 1.1 µM and inactive = higher.
observed-property: GI50

Study these solved cases before continuing.
COc1cc2c(cc1O)NC(=O)[C@@H]1CCCN1C2=O : > 100 µM (inactive)
COc1cccc(CC(C)NCC(O)c2ccc(O)c(O)c2)c1 (stereo unspecified) : 33 µM (inactive)
CCCCn1cnc2c(SC)ncnc21 : > 100 µM (inactive)
Clc1ccc(C2C3COc4ccccc4C3=NN2c2ccccc2)cc1 (stereo unspecified) : 5.05 µM (inactive)
Cc1ccc(S(=O)(=O)OCCN(CCOS(=O)(=O)c2ccc(C)cc2)c2ccc(C=O)cc2)cc1 : 29.6 µM (inactive)

GI50 for CCCCCC[C@@H]1CCC2C(CO)[C@@H](O)CC[C@@H]2C1 (stereo partly specified) ?
23.1 µM (inactive)

Would you kindly share the measured GI50 for COC(=O)Cc1c(/C=C/C(C)(C)n2cnc(CCN3C(=O)CCC3=O)c2)[nH]c2ccccc12 ?
> 100 µM (inactive)

Sample C/C=C\C(CC(=O)NCC(=O)c1c[nH]c2ccccc12)CC(=O)OC (stereo unspecified) — what was its GI50?
> 100 µM (inactive)

Endpoint output: GI50 of CCCC[C@@H]1CCN2C[C@@H](O)[C@@H](O)[C@H]2[C@@H]1O . Value?
> 100 µM (inactive)

Entry Cn1c(N=P(c2ccccc2)(c2ccccc2)c2ccccc2)c([N+](=O)[O-])c(=O)n(C)c1=O has what GI50?
41.4 µM (inactive)

// query GI50 value for entry COC(=O)c1cc(C#N)[nH]c1-c1ccc(Br)s1
15.9 µM (inactive)

---

# Lookup of reported GI50 keyed by entry
Tested on: Malme-3M
protocol: NCI tumour cell line growth inhibition, 48 h
Activity calls are given as the source filed them. Rule as the data show it: active = GI50 up to about 1.1 µM and inactive = higher.

O=C1/C(=C\Oc2ccc(F)cc2)N2CCC1CC2 : 33.3 µM (inactive)
O=C1C=C(Nc2cccnc2)c2ccccc2C1=O : 2.34 µM (inactive)
Cc1cccc(NC(=O)CSc2nnc(Cc3ccccc3)o2)c1 : > 100 µM (inactive)
CC(C)(C)N/N=C(\C(=O)NC1=C(Cl)C(=O)c2ccccc2C1=O)C1C=CCS1(=O)=O (stereo unspecified) : 2.27 µM (inactive)

Field request: GI50 | item: CN(C)CCNc1nc2ccccc2c2c1C(=O)c1ccccc1-2
0.251 µM (active)

For the compound shown here, CCCc1n[nH]c(CCC(=O)N(Cc2ccccc2)Cc2ccccc2)c1CC , give the reported GI50.
> 100 µM (inactive)

What does the record list as GI50 for CCOC(=O)Cc1csc(Nc2ccccc2[N+](=O)[O-])n1 ?
> 100 µM (inactive)

Give the measured GI50 of COc1ccc(C(=O)/C=C/c2ccc(OCC(=O)O)cc2)cc1 .
50.7 µM (inactive)

Which GI50 is listed for CN(C)c1ccc(/C=c2\c3cc([N+](=O)[O-])ccc3n3c2cc(-c2ccccc2)[n+]3C)cc1 ?
0.55 µM (active)

Item under review: Cc1[nH]c2ccccc2c1/C=N/c1ccc(/N=C/c2c(C)[nH]c3ccccc23)cc1 . Reported GI50?
30.8 µM (inactive)
